# System: AsPC-1/Cas9 cell line (human pancreatic cancer cell line AsPC-1)
# experimentDescription: AsPC-1/Cas9 growth inhibition assay
# Assay type: cell-based
# testConditions: 5 days culture, CellTiter Glo 2.0, read-out: IC50 (Absolute IC50, 50% inhibition of cell growth)

compound: COc1cc(=O)n(C)cc1-c1ccc2nc(N3CCC(N4CCC(C)(N)CC4)CC3)nc(C(CO)(OC3CC3)c3cccc4ccccc34)c2c1 (stereo not drawn)
readoutQualifier: <
IC50 / nM: 0.015
//
compound: C#CCNC1(C)CCN(C2CCN(c3nc(C(CO)(OC4CC4)c4ccccc4)c4cc(-c5cn(C)c(=O)c6[nH]ccc56)ccc4n3)CC2)CC1 (stereo not drawn)
readoutQualifier: =
IC50 / nM: 0.041
//
compound: C#CC1(O)CCN(C2CCN(c3nc(C(CO)(OC4CC4)c4ccccc4)c4cc(-c5cn(C)c(=O)c6[nH]ccc56)ccc4n3)CC2)CC1 (stereo not drawn)
readoutQualifier: <
IC50 / nM: 0.015
//
compound: Cc1cc(-c2ccc3nc(N)nc(C(CO)(CC4CC4)c4cccnc4)c3c2)cn(C)c1=O (stereo not drawn)
readoutQualifier: =
IC50 / nM: 0.035
//
compound: Cc1cc(-c2ccc3nc(N=S(C)(C)=O)nc(C(CO)(CC(C)C)c4ccccc4)c3c2)cn(C)c1=O (stereo not drawn)
readoutQualifier: =
IC50 / nM: 0.051
//
compound: Cc1cc(-c2ccc3nc(N)nc(C(CO)(Cc4ccccc4)c4ncccn4)c3c2)cn(C)c1=O (stereo not drawn)
readoutQualifier: =
IC50 / nM: 0.043
//
compound: Cc1cc(-c2ccc3nc(N)nc(C(CO)(OC4CC4)c4cccs4)c3c2)cn(C)c1=O (stereo not drawn)
readoutQualifier: =
IC50 / nM: 0.039
//
compound: Cc1cc(-c2ccc3cc(N=S(C)(C)=O)nc(C(CO)(OC4CC4)c4ccccc4)c3c2)cn(C)c1=O (stereo not drawn)
readoutQualifier: =
IC50 / nM: 0.075
//
compound: Cc1cc(-c2ccc3nc(NS(C)(=O)=O)nc(C(CO)(CC4CC4)c4ccccn4)c3c2)cn(C)c1=O (stereo not drawn)
readoutQualifier: =
IC50 / nM: 0.035
//
compound: CCn1c(=O)nc(C(CO)(OC)c2ccccc2)c2cc(-c3cc(C)c(=O)n(C)c3)ccc21 (racemic)
readoutQualifier: =
IC50 / nM: 0.04
//
compound: Cc1cc(-c2ccc3nc(N=S(C)(C)=O)nc(C(CO)(Cc4ccccc4)c4ccccc4)c3c2)cn(C)c1=O (stereo not drawn)
readoutQualifier: =
IC50 / nM: 0.034
//
compound: CCCC(CO)(c1ccccn1)c1[nH]c(=O)cc2ccc(-c3cc(C)c(=O)n(C)c3)cc12 (stereo not drawn)
readoutQualifier: =
IC50 / nM: 0.039
//
compound: COc1cc(=O)n(C)cc1-c1ccc2nc(N)nc(C(CO)(CC3CC3)c3cccnc3)c2c1 (stereo not drawn)
readoutQualifier: =
IC50 / nM: 0.057
//
compound: C#CC1CCN(c2nc(C(CO)(OC3CC3)c3ccccc3)c3cc(-c4cn(C)c(=O)c5[nH]ccc45)ccc3n2)CC1 (stereo not drawn)
readoutQualifier: =
IC50 / nM: 0.032
//
compound: Cc1cc(-c2ccc3nc(N=S(C)(C)=O)nc(C(CO)(CC4CCOCC4)c4ccccc4)c3c2)cn(C)c1=O (stereo not drawn)
readoutQualifier: =
IC50 / nM: 0.029

###

# measurementTarget: HiBiT tagged BRD4-BD1 protein in HEK293/LgBiT/hPGK/HiBiT-BRD4-BD1 cells (Homo sapiens, UniProt O60885)
# experimentDescription: BET BD1 domain degradation assay
# Assay type: cell-based
# Design: HiBit-linker-BRD4 BD1(1-209); host or cells: HEK293 (ATCC CRL-1573) stably transduced with LgBiT and HiBiT-BRD4-BD1
# testConditions: concentration for 50% reduction in HiBiT-BRD4-BD1 protein level, 3 hours, read-out: Absolute DC50—3 h (nM) HEK293_HiBiT-BRD4-BD1
Each item that follows carries a reported log10 of DC50.
measurementLabel: log10 of DC50 (log10 of the value in nM)

compound: CCCC(CO)(CCC)c1nc(N2CCC(OC3CCN(C(=O)c4ccc(OC)c(N5CCC(=O)NC5=O)c4)CC3)CC2)nc2ccc(-c3cn(C)c(=O)cc3OC)cc12
log10 of DC50: -1.30
--
compound: COc1ccc(C#CCNC2(C)CCN(C3CCN(c4nc([C@@](CO)(OC5CC5)c5ccccc5)c5cc(-c6cn(C)c(=O)c7[nH]ccc67)ccc5n4)CC3)CC2)cc1N1CCC(=O)NC1=O
log10 of DC50: -1.08
--
compound: Cc1ccc(C(=O)N2C[C@H](C)N(C3CCN(c4nc(C(CO)(OC5CC5)c5cccc(O)c5)c5cc(-c6cn(C)c(=O)c7[nH]ccc67)ccc5n4)CC3)C[C@H]2C)cc1N1CCC(=O)NC1=O (some centres unmarked)
log10 of DC50: -0.22
--
compound: CNCCN(C)C(=O)OCC(OC1CC1)(c1ccccc1)c1nc(N2CCC(CN3C[C@@H](C)N(C(=O)c4ccc(OC)c(N5CCC(=O)NC5=O)c4)C[C@@H]3C)CC2)nc2ccc(-c3cn(C)c(=O)c4[nH]ccc34)cc12 (some centres unmarked)
log10 of DC50: 0.20
--
compound: COc1ccc(C(=O)N2C[C@H](C)N(CC3CCN(c4nc([C@@](CN)(OC5CC5)c5ccccc5)c5cc(-c6cn(C)c(=O)c7[nH]ccc67)ccc5n4)CC3)C[C@H]2C)cc1N1CCC(=O)NC1=O
log10 of DC50: -0.82
--
compound: COc1ccc(C(=O)NC2(C)CCN(CC3CCN(c4nc(C(CO)(OC5CC5)c5ccccc5)c5cc(-c6cn(C)c(=O)c7occc67)ccc5n4)CC3)CC2)cc1N1CCC(=O)NC1=O (centres unmarked)
log10 of DC50: -0.68
--
compound: COc1ccc(C#CCNC2(C)CCN(C3CCN(c4nc([C@@](COCNC(=O)[C@H](CC(N)=O)NC(C)=O)(OC5CC5)c5ccccc5)c5cc(-c6cn(C)c(=O)c7[nH]ccc67)ccc5n4)CC3)CC2)cc1N1CCC(=O)NC1=O
log10 of DC50: 1.04
--
compound: Cn1cc(-c2ccc3nc(N4CC(OC5CCN(C(=O)c6cccc(N7CCC(=O)NC7=O)c6)CC5)C4)nc([C@@](CO)(OC4CC4)c4ccccc4)c3c2)c2cc[nH]c2c1=O
log10 of DC50: -1.35

###

# measurementTarget: HiBiT tagged BRD4-BD1 protein in HEK293/LgBiT/hPGK/HiBiT-BRD4-BD1 cells (Homo sapiens, UniProt O60885)
# experimentDescription: BET BD1 domain degradation assay
# Assay type: cell-based
# Parameters: HiBit-linker-BRD4 BD1(1-209); host or cells: HEK293 (ATCC CRL-1573) stably transduced with LgBiT and HiBiT-BRD4-BD1
# testConditions: concentration for 50% reduction in HiBiT-BRD4-BD1 protein level, 3 hours, read-out: Absolute DC50—3 h (nM) HEK293_HiBiT-BRD4-BD1
Each item that follows carries a reported DC50.

molecule: Cc1cc(-c2ccc3nc(N4CCC(CN5CCN(C(=O)COc6cccc7c6C(=O)N(C6CCC(=O)NC6=O)C7=O)CC5)CC4)nc(C(CO)(OC4CC4)c4ccccc4)c3c2)cn(C)c1=O (stereo not drawn)
DC50: 0.15 nM
--
molecule: COc1ccc(C(=O)N2C[C@H](C)N(C3CCN(c4nc([C@@](CN)(OC5CC5)c5ccccc5)c5cc(-c6cn(C)c(=O)c7[nH]ccc67)ccc5n4)CC3)C[C@H]2C)cc1N1CCC(=O)NC1=O
DC50: 0.33 nM
--
molecule: CNCCN(C)C(=O)OCC(OC1CC1)(c1ccccc1)c1nc(N2CCC(C#Cc3ccc(OC)c(N4CCC(=O)NC4=O)c3)CC2)nc2ccc(-c3cn(C)c(=O)c4[nH]ccc34)cc12 (stereo not drawn)
DC50: 2.9 nM

###

Each item that follows carries a reported pIC50.
# Test system: AsPC-1/Cas9 cell line (human pancreatic cancer cell line AsPC-1)
# experimentDescription: AsPC-1/Cas9 growth inhibition assay
# Type: cell-based
# testConditions: 5 days culture, CellTiter Glo 2.0, read-out: IC50 (Absolute IC50, 50% inhibition of cell growth)
pIC50: −log10 of the molar value.

compound: Cc1cc(-c2ccc3nc(N=S(C)(C)=O)nc(C(CO)(OC(C)C)c4ccccc4)c3c2)cn(C)c1=O (stereo not shown) [Example 19]
measurementTarget: AsPC-1/Cas9 cell line (human pancreatic cancer cell line AsPC-1)
pIC50: 10.51
//
compound: Cc1cc(-c2ccc3nc(CNS(C)(=O)=O)nc(C(CO)(OC4CC4)c4ccccc4)c3c2)cn(C)c1=O (stereo not shown) [Example 18]
measurementTarget: AsPC-1/Cas9 cell line (human pancreatic cancer cell line AsPC-1)
pIC50: 10.33
//
compound: Cn1cc(-c2ccc3nc(N4CCC(OC5CCNCC5)CC4)nc(C(CO)(c4ccccc4)c4ccccc4)c3c2)c2ccoc2c1=O [Example 35]
measurementTarget: AsPC-1/Cas9 cell line (human pancreatic cancer cell line AsPC-1)
pIC50: 10.42
//
compound: COCCC(CO)(c1ccccc1)c1nc(N=S(C)(C)=O)nc2ccc(-c3cc(C)c(=O)n(C)c3)cc12 (stereo not shown) [Example 22]
measurementTarget: AsPC-1/Cas9 cell line (human pancreatic cancer cell line AsPC-1)
pIC50: 8.80
//
compound: Cc1cc(-c2ccc3nc(NS(C)(=O)=O)nc(C(CO)(CC4CCC4)c4ccccc4)c3c2)cn(C)c1=O (stereo not shown) [Example 8]
measurementTarget: AsPC-1/Cas9 cell line (human pancreatic cancer cell line AsPC-1)
pIC50: 10.37
//
compound: Cc1cc(-c2ccc3nc(NC(=O)N4CC(O)C4)nc(C(CO)(OC4CC4)c4ccccc4)c3c2)cn(C)c1=O (stereo not shown) [Example 10]
measurementTarget: AsPC-1/Cas9 cell line (human pancreatic cancer cell line AsPC-1)
pIC50: 10.44
//
compound: CCOC(CO)(c1ccccc1)c1nc(C(N)=O)cc2ccc(-c3cc(C)c(=O)n(C)c3)cc12 (stereo not shown) [Example 16]
measurementTarget: AsPC-1/Cas9 cell line (human pancreatic cancer cell line AsPC-1)
pIC50: 10.46
